From: patent US7812177B2

Target: rSlo channel (Rattus norvegicus)
Assay: Concentration dependence on macroscopic rSlo channel activity expressed in Xenopus oocytes, Hill fit
Settings: 2 μM intracellular Ca2+, step to 50 mV; N=5; read-out: Kd, apparent dissociation constant (Hill fit)
recorded-metric: pKd
Worth noting: pKd values are minus log10 of concentrations stated in mol/L.

Param item = O=C(O)c1ccc(Cl)c2c1[nH]c1c3ccc(C(F)(F)F)cc3oc12 ; retrieve measured pKd. 5.40

* * *

Biological target: rSlo channel (Rattus norvegicus, UniProt Q62976)
Sequence (Q62976 whole entry): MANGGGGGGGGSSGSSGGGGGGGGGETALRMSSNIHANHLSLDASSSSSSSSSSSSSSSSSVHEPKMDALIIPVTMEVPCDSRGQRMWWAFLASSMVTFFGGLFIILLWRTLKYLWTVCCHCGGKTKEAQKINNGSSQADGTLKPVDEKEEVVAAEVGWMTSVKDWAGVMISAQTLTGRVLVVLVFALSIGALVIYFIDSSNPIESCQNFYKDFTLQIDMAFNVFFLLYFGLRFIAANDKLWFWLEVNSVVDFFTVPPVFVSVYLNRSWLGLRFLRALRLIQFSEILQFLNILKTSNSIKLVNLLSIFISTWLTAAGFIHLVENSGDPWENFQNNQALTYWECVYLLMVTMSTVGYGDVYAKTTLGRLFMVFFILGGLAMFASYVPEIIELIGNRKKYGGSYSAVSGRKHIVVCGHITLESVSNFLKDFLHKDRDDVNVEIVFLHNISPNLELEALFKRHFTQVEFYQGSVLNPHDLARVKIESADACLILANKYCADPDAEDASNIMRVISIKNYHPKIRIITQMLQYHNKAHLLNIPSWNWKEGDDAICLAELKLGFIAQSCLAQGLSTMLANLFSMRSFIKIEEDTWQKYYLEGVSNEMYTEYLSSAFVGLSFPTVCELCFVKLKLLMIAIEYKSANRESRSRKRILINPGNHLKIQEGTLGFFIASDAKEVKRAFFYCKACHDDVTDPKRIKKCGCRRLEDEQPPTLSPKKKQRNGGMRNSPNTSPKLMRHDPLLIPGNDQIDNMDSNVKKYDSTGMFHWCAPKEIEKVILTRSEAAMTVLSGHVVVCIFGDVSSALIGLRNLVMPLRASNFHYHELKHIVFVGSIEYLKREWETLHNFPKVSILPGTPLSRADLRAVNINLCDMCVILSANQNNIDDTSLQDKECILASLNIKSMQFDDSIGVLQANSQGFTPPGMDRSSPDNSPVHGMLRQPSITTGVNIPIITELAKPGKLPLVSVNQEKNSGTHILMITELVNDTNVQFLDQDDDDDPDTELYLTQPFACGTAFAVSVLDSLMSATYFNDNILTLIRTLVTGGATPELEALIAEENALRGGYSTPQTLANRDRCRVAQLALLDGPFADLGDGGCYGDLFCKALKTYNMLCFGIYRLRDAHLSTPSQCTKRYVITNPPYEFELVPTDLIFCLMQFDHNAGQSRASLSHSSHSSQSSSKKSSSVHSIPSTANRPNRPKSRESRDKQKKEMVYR
Experiment: Concentration-dependence of channel opening, compound applied to the extracellular side of membrane patches
Settings: extracellular application
recorded-metric: EC50 (µM)
Write it as a number; the unit µM goes unstated.

Quick one: EC50 for O=C(O)c1cccc2c1[nH]c1c3ccc(C(F)(F)F)cc3oc21 ? 8.9
